The measurements presented in this section are drawn from patent US6949250B2.

# assayProcedure: DNA2-59-1 third efficacy study: dissipation rate and half-life in pond water (HPLC)
# Assay type: physicochemical
# measurementSetup: third study, 0.3 μM applied, 96 hours
parameter: DNA2-59-1 Levels in Pond Water (µg/L)

substancesmiles=CC(C)NCc1ccc2c(c1)C(=O)c1ccccc1C2=O quantitativereadout=0

---

# assayProcedure: DNA2-59-1 third efficacy study: dissipation rate and half-life in pond water (HPLC)
# Assay type: physicochemical
# measurementSetup: third study, 0.3 μM applied, 24 hours
parameter: DNA2-59-1 Levels in Pond Water

substancesmiles=CC(C)NCc1ccc2c(c1)C(=O)c1ccccc1C2=O result="31.5 µg/L"

---

# assayProcedure: DNA2-59-1 third efficacy study: dissipation rate and half-life in pond water (HPLC)
# Format: physicochemical
# measurementSetup: third study, 0.3 μM applied, 48 hours
parameter: DNA2-59-1 Levels in Pond Water (µg/L)

compound="CC(C)NCc1ccc2c(c1)C(=O)c1ccccc1C2=O [DNA2-59-1]" parameter="DNA2-59-1 Levels in Pond Water" quantitativereadout=9.2

---

# assayProcedure: DNA2-59-1 second efficacy study: dissipation rate and half-life in pond water (HPLC)
# Type: physicochemical
# measurementSetup: second study, 0.3 μM applied, 0 hours
# Method: In the second efficacy test with DNA2-59-1, six limnocorrals (1.53 m in diameter and 1.53 m high) were placed in a 0.1-ha earthen pond containing a heavy bloom of O. perornata. […] Filtrate samples were analyzed using a Waters 2690 Alliance HPLC containing a 996 PDA detector and a XTerra RP 18 column (150 mm×4.6 mm, 5 μm particle size; Waters Corporation, Milford, Mass.). […] Means and standard deviations of data were determined and graphed. […]
parameter: DNA2-59-1 Levels in Pond Water (µg/L)

substancesmiles=CC(C)NCc1ccc2c(c1)C(=O)c1ccccc1C2=O parameter="DNA2-59-1 Levels in Pond Water" unittext=µg/L quantitativereadout=94.8

---

# System: Selenastrum capricornutum
# assayProcedure: Rapid bioassay screening for selective algicides (LOEC, LCIC)
# Format: cell-based
# measurementSetup: rapid screening
Property: LCIC (lowest-complete-inhibition concentration), Selenastrum capricornutum; scope: individual compounds
parameter: LCIC (lowest-complete-inhibition concentration), Selenastrum capricornutum

compound="CN(C)CCCNc1cccc2c1C(=O)c1ccccc1C2=O.O=P(O)(O)O [DNA2-93-1]" result="100,000 nM"
compound="CCN(CC)CCCC(C)NCc1ccc2c(c1)C(=O)c1ccccc1C2=O.O=P(O)(O)O.O=P(O)(O)O (stereo not drawn) [DNA1-19-1]" result="10,000 nM"
compound="CCN(CC)CCCNc1cccc2c1C(=O)c1ccccc1C2=O.O=P(O)(O)O [DNA2-91-1]" result="100,000 nM"
compound="CCCCCNCc1ccc2c(c1)C(=O)c1ccccc1C2=O.O=P(O)(O)O [DNA2-55-1]" result="100,000 nM"
compound="O=C1c2ccccc2C(=O)c2cc(CNC3CC3)ccc21.O=P(O)(O)O [DNA3-35-1]" result="100,000 nM"
compound="CNCc1ccc2c(c1)C(=O)c1ccccc1C2=O.O=P(O)(O)O [DNA3-19-1]" result="10,000 nM"
compound="CCN(CC)CCCNCc1ccc2c(c1)C(=O)c1ccccc1C2=O.O=P(O)(O)O.O=P(O)(O)O [DNA2-25-1]" result="10,000 nM"
compound="CCN(CC)Cc1cccc2c1C(=O)c1ccccc1C2=O [DNA4-39-1]" result="10,000 nM"
compound="O=C1c2ccccc2C(=O)c2cc(COCCOCCOCCO)ccc21 [DNA3-57-1]" result=">100,000 nM"
